# procedure.summary: BET inhibitor-based combinations targeting novel dependencies in MECOM-rearranged (r) AML: AML-194 cell line (AID 2202237; further: nearly all actives have a fitted effect of over 40% in size)
# experimental.context: AML-194 (MECOM-r AML) viability, CellTiter-Glo, 48 h; series mostly up to 46 µM
Records with an inconclusive call do not appear. Activity calls are given as the source filed them. The call rests on the fitted dose curve; in most records, active means well fitted inhibition curve with a large enough effect; inconclusive means small, poorly fitted or top-dose-only effect; inactive means flat fitted curve, though single readings scatter.
Classes used: active, inactive

compound: COc1ccc(N2C(=O)N(c3c(C)cccc3Cl)Cc3cnc(Nc4ccc(C5CCN(C)CC5)cc4OC)nc32)nc1
answer.label: active

compound: C=CC[N+]1([C@H]2C[C@H]3[C@@H]4CC[C@H]5C[C@H](O)[C@@H](N6CCOCC6)C[C@]5(C)[C@H]4CC[C@]3(C)[C@H]2OC(C)=O)CCCC1
answer.label: inactive

compound: COC1CCC(N2C(=O)CNc3ncc(-c4ccc(C(C)(C)O)nc4)nc32)CC1 (stereo not drawn)
answer.label: active

compound: CC(C)NC(=O)COc1cccc(-c2nc(Nc3ccc4[nH]ncc4c3)c3ccccc3n2)c1
answer.label: active

compound: Cc1c[nH]c2nc(Nc3ccc(N4CCN(C)CC4)c(F)c3)nc(-c3cccc(CC#N)c3)c12
answer.label: active

compound: O=C(O)/C=C/c1ccc(Cn2ccnc2)cc1
answer.label: inactive

compound: CCOC(=O)c1ccc(C#Cc2ccc3c(c2)C(C)(C)CCS3)nc1
answer.label: inactive

compound: CN(C)c1ccc(C(=O)NCCCCCCC(=O)NO)cc1
answer.label: active

compound: c1ccc2c(Cc3c[nH]c4ccccc34)c[nH]c2c1
answer.label: inactive

compound: C#C[C@]1(O)CC[C@H]2[C@@H]3CCc4cc(O)ccc4[C@H]3CC[C@@]21C
answer.label: active

compound: Cc1ccc2nc(NCCN)c3ncc(C)n3c2c1
answer.label: active

compound: Cc1ccc(C(=O)N(CCCN)[C@@H](c2nc3cc(Cl)ccc3c(=O)n2Cc2ccccc2)C(C)C)cc1
answer.label: active

compound: CN[C@@H]1C[C@H]2O[C@@](C)([C@@H]1OC)n1c3ccccc3c3c4c(c5c6ccccc6n2c5c31)C(=O)N[C@H]4O
answer.label: active

compound: Nc1nc(Nc2ccc3c(c2)CC[C@@H](N2CCCC2)CC3)nn1-c1cc2c(nn1)-c1ccccc1CCC2
answer.label: active

compound: Cc1nc(C)c(CN2CCN(C(c3ccc(F)cc3)c3ccc(F)cc3)CC2)nc1C
answer.label: active

compound: Cc1ccc(-n2c(C)cc(-c3nnc4n3CCCCC4)c2C)cc1
answer.label: inactive

compound: O=C1OC(COc2ccccc2[N+](=O)[O-])CC1Cc1ccccc1 (stereo not drawn)
answer.label: inactive

compound: O=c1c(-c2ccc(O)cc2)coc2c([C@@H]3O[C@H](CO)[C@@H](O)[C@H](O)[C@H]3O)c(O)ccc12
answer.label: inactive

compound: O=C(O)c1cccnc1
answer.label: inactive

compound: N#Cc1ccc(-c2c(-c3ncn[nH]3)sc(N3CCOCC3)c2C#N)c(F)c1
answer.label: active

compound: Cc1c(CN2CCC(Nc3ncnc4sc(CC(F)(F)F)cc34)CC2)ccc2c1cc(C#N)n2Cc1cn[nH]c1
answer.label: active

compound: CC(C)C1CCC(C(=O)N[C@H](Cc2ccccc2)C(=O)O)CC1 (stereo partly drawn)
answer.label: inactive

compound: C[C@H]1CN(C2COC2)CCN1c1ccc(Nc2cc(-c3ccnc(N4CCn5c(cc6c5CC(C)(C)C6)C4=O)c3CO)cn(C)c2=O)nc1
answer.label: inactive

compound: CN1CCN(C2CCC(n3cc(-c4ccc(Oc5ccccc5)cc4)c4c(N)ncnc43)CC2)CC1 (stereo not drawn)
answer.label: active

compound: Cc1noc(-c2ccc(-c3ccc(C4(C(=O)O)CC4)cc3)cc2)c1NC(=O)O[C@H](C)c1ccccc1
answer.label: inactive

compound: NCC(=O)Nc1cncc(-c2nn3c(=O)cc(N4CCNCC4)nc3s2)c1
answer.label: inactive

compound: Cc1ccc(Nc2cc(N[C@@H]3CCCC[C@@H]3N)nnc2C(N)=O)nc1C
answer.label: active

compound: COc1cc(C(N)=O)ccc1NC(=O)[C@@H]1N[C@@H](CC(C)(C)C)[C@@]2(C(=O)Nc3cc(Cl)ccc32)[C@H]1c1cccc(Cl)c1F
answer.label: active

compound: CCC(=O)Nc1cccc(Oc2nc(Nc3ccc(N4CCN(C)CC4)cc3OC)ncc2Cl)c1
answer.label: active

compound: CCC(=O)OCC(=O)C1(OC(=O)CC)C(C)CC2C3CCC4=CC(=O)C=CC4(C)C3(F)C(O)CC21C (stereo not drawn)
answer.label: inactive

compound: CCCCCCCCCCCCCCCCCCCCCCO
answer.label: inactive

compound: Nc1nc(OC(c2ccc(-c3cccc(F)c3)cc2)C(F)(F)F)cc(-c2ccc(C[C@H](N)C(=O)O)cc2)n1 (stereo partly drawn)
answer.label: inactive

compound: C/C(=N\NC(=S)N1CCC1)c1ccccn1
answer.label: active

compound: CC#Cc1cncc(-c2ccc3c(c2)[C@@]2(N=C(C)C(N)=N2)C2(CCC(OC)CC2)C3)c1 (stereo partly drawn)
answer.label: inactive

compound: O=c1[nH]c(=O)n([C@H]2C[C@H](O)[C@@H](CO)O2)cc1C(F)(F)F
answer.label: active

compound: CCN[C@H]1C[C@H](C)S(=O)(=O)c2sc(S(N)(=O)=O)cc21
answer.label: inactive

compound: CC(/C=C1\SC(=S)N(CC(=O)O)C1=O)=C\c1ccccc1
answer.label: inactive

compound: Cc1c(F)ccc(C(=O)Nc2cc([N+](=O)[O-])ccc2N2CCN(C)CC2)c1Cl
answer.label: inactive
